experiment: Quantitative High-Throughput drug screen in 47 multiple myeloma cell lines against the NCATS MIPE library collection: MM1S_ATCC cell viability assay (AID 1918980); settings: MM1S myeloma viability, CellTiter-Glo ATP luminescence, 48 h; series mostly up to 45.8 µM; also: nearly all actives have a fitted effect of over 45% in size
Inconclusive results are not listed. The source made the active and inactive calls. Calls follow the shape of the dose curve; as a rule, active = well fitted cell-killing curve with a large enough effect; inconclusive = small, poorly fitted or top-dose-only effect, or effect the other way; inactive = no such curve, though single readings can be large or run the other way.
Select the matching outcome among Yes for active, No for inactive

For orientation, consider the following solved cases.
{"columns": ["item smiles", "answer label"],
 "data": [
  ["CN(C)CC(=O)N1CCC(c2ccc(NC(=O)c3ncc(C#N)[nH]3)c(C3=CCCCC3)c2)CC1", "Yes"],
  ["C=CC[C@@H]1C=C(C)C[C@H](C)C[C@H](OC)[C@H]2O[C@@](O)(C(=O)C(=O)N3CCCC[C@H]3C(=O)O[C@H](C(C)=C[C@@H]3CC[C@H](O)[C@H](OC)C3)[C@@H](C)[C@@H](O)CC1=O)[C@@H](C)C[C@@H]2OC", "Yes"],
  ["O=C(NCc1ccccc1)[C@H](Cc1ccccc1)NC(=O)[C@@H]1O[C@@H]1C(=O)NCCc1ccc(O)cc1", "Yes"],
  ["CC(=O)O[C@]1(C(C)=O)CC[C@H]2[C@@H]3C=C(C)C4=CC(=O)CC[C@]4(C)[C@@H]3CC[C@@]21C", "Yes"],
  ["O=C(O)CCCCCC(=O)NN=C1CCCC1", "No"],
  ["C=CCNc1c(O)cc2c(O)c1C[C@@H](C)C[C@H](OC)[C@@H](O)[C@@H](C)C=C(C)[C@H](OC(N)=O)[C@@H](OC)C=CC=C(C)C(=O)N2", "Yes"],
  ["CCNC(=O)c1cc2c(-c3cc(OCCN4CCCC4)c(Cl)cc3Cl)nc(N)nc2s1", "Yes"],
  ["NC(=O)Nc1sc(-c2ccc(F)cc2)cc1C(N)=O", "Yes"],
  ["C=CC1=C(C(=O)O)N2C(=O)[C@@H](NC(=O)C(=NO)c3csc(N)n3)[C@H]2SC1", "No"],
  ["CCOC(=O)[C@H](CCc1ccccc1)N[C@@H](C)C(=O)N1[C@@H](C(=O)O)C[C@H]2CCC[C@@H]21", "Yes"]
]}

Write down the call the test reported for this compound. Item: COc1cc(N2CCC(C(N)=O)CC2)ccc1Nc1nc(N)c(Cl)c(Nc2ccccc2S(=O)(=O)C(C)C)n1 Yes

Write down the call the test reported for this compound. Item: CCc1nc(-c2cccc(C)c2)c(-c2ccnc(NC(=O)c3ccccc3)c2)s1 Yes

---

assay: Quantitative High-Throughput drug screen in 47 multiple myeloma cell lines against the NCATS MIPE library collection: MM1S_ATCC cell viability assay (AID 1918980); details: MM1S myeloma viability, CellTiter-Glo ATP luminescence, 48 h; series mostly up to 45.8 µM; also: nearly all actives have a fitted effect of over 45% in size
Inconclusive results are not listed. Calls of active or inactive are those of the source. Calls follow the shape of the dose curve; as a rule, active = well fitted cell-killing curve with a large enough effect; inconclusive = small, poorly fitted or top-dose-only effect, or effect the other way; inactive = no such curve, though single readings can be large or run the other way.
Select the matching outcome among active, inactive

{"columns": ["molecule", "answer label"],
 "data": [
  ["Cc1ccc2nc(NCCN)c3ncc(C)n3c2c1", "active"]
]}

Write down the call the test reported for this molecule. Item: COc1ccc(Nc2cc(-c3cnc(N)nc3)nc(N3CCOCC3)n2)cn1 active

Write down the call the test reported for this molecule. Item: Cn1cc(C2=C(c3c4n(c5ccccc35)CCC(CN)C4)C(=O)NC2=O)c2ccccc21 (stereo not given) active

Write down the call the test reported for this molecule. Item: NC(=NCCCCCCN=C(N)N=C(N)Nc1ccc(Cl)cc1)N=C(N)Nc1ccc(Cl)cc1 active

Write down the call the test reported for this molecule. Item: Cc1cnn(C)c1C(=O)Nc1cc(Nc2ccc3c(C=Cc4ccccn4)n[nH]c3c2)ccc1F active

Write down the call the test reported for this molecule. Item: C[C@H](NCc1ccc2c(c1)nc(NC(=O)c1ccc(-c3cn[nH]c3)s1)n2CCc1ccccc1)C(C)(C)C active

Write down the call the test reported for this molecule. Item: C#Cc1cccc(Nc2ncnc3cc(OCCOC)c(OCCO)cc23)c1 active

Write down the call the test reported for this molecule. Item: CCc1c(O)cc(O)c(C(=O)c2ccc(OCCN3CCOCC3)c(OC)c2)c1CC(=O)N(CCOC)CCOC active

Write down the call the test reported for this molecule. Item: CC1(C)O[C@@H]2C[C@H]3[C@@H]4CCC5=CC(=O)C=C[C@]5(C)[C@@H]4[C@@H](O)C[C@]3(C)[C@]2(C(=O)CO)O1 active

Write down the call the test reported for this molecule. Item: C[C@H]1C[C@H]2[C@@H]3CCC4=CC(=O)C=C[C@]4(C)[C@@H]3C(=O)C[C@]2(C)[C@@]1(O)C(=O)CO inactive

Write down the call the test reported for this molecule. Item: C[C@H](NCc1ccc(OCc2cccc(F)c2)cc1)C(N)=O active

Write down the call the test reported for this molecule. Item: Cn1cc(CNCC2CCN(c3ncc(C(=O)NO)cn3)CC2)c2ccccc21 active

Write down the call the test reported for this molecule. Item: Cn1c(Nc2ccc(C(F)(F)F)cc2)nc2cc(Oc3ccnc(-c4ncc(C(F)(F)F)[nH]4)c3)ccc21 active

Write down the call the test reported for this molecule. Item: O=C1NCCc2[nH]c(-c3ccncc3)cc21 active

Write down the call the test reported for this molecule. Item: COc1cc(OC)cc(-c2ccc3ncc4ccc(=O)n(-c5ccc(N6CCNCC6)c(C(F)(F)F)c5)c4c3c2)c1 active

---

experiment: qHTS Screen of the MIPE 4.0 Collection Against Ewings Sarcoma (EW8) (AID 1259255); conditions: EW8 Ewing sarcoma viability, CellTiter-Glo, 48 h; series mostly up to 45.8 µM; also: potency is read from the fitted curve at half-maximal effect; nearly all actives have a fitted effect of over 35% in size
Inconclusive results are not listed. Activity calls are given as the source filed them. Calls follow the shape of the dose curve; as a rule, active = well fitted inhibition curve with a large enough effect; inconclusive = small, poorly fitted or top-dose-only effect; inactive = no such curve, though single readings can be large or run the other way.
Recorded Potency for the following compounds

Examples with answers:
{"columns": ["compound", "Potency"],
 "data": [
  ["CC(O)(C#Cc1ccc2c(c1)N(c1nc(N)ncc1Cl)CC2)c1nccs1 (stereo not drawn)", "20.9 µM (active)"],
  ["CC(C)(C)c1nc2c3cc[nH]c(=O)c3c3cc(F)ccc3c2[nH]1", "4.69 µM (active)"]
]}

// moving on: another record for Potency
Return reported Potency; argument: CC[C@@]1([C@@H]2O[C@@H]([C@H]3O[C@@](O)(CO)[C@H](C)C[C@H]3C)C[C@H]2C)CC[C@H]([C@]2(C)CC[C@]3(C[C@H](O)[C@@H](C)[C@@H]([C@@H](C)[C@@H](OC)[C@H](C)C(=O)O)O3)O2)O1 0.162 µM (active)

---

system: Es-2; assay: Primary qHTS to identify gynecologic anti-cancer compounds using libraries of approved drugs and bioactive compounds (AID 1345084); details: Gynecologic cancer cell panel viability, ATPlite luminescence, 48 h; series mostly up to 57.5 µM; also: nearly all actives have a fitted effect of over 55% in size
Inconclusive results are not listed. Activity calls are given as the source filed them. Calls follow the shape of the dose curve; as a rule, active = well fitted cell-killing curve with a large enough effect; inconclusive = small, poorly fitted or top-dose-only effect, or effect the other way; inactive = flat fitted curve, though single readings scatter.

{"columns": ["compound", "outcome"],
 "data": [
  ["Cc1cn([C@@H]2O[C@H](CO)[C@@H](O)[C@H]2F)c(=O)[nH]c1=O", "inactive"],
  ["CCOc1cc2c(c(F)c1OCC)C(=N)N(CC(=O)c1cc(N3CCOCC3)c(OC)c(C(C)(C)C)c1)C2", "inactive"],
  ["CC(O)(C#Cc1ccc2c(c1)N(c1nc(N)ncc1Cl)CC2)c1nccs1 (stereo not drawn)", "inactive"]
]}

---

Test: qHTS of pediatric cancer cell lines to identify multiple opportunities for drug repurposing: Primary screen for SK-N-MC cells (AID 1347093)
Conditions: SK-N-MC viability, CellTiter-Glo luminescence, 48 h; series mostly up to 46 µM
Experimental: Drug repurposing or repositioning has been offered as a strategy for drug development in oncology programs. […] [1] Shen, M et al. Quantitative high-throughput phenotypic screening of pediatric cancer cell lines identifies multiple opportunities for drug repurposing. […] Cells were assayed in growth media at a density of 500-1,000 cells/well. […] After a 15 min incubation at room temperature, samples were analyzed for luminescence intensity using a ViewLux High-throughput CCD imager equipped with clear filters.
Records with an inconclusive call do not appear. Activity calls are given as the source filed them. Calls follow the shape of the dose curve; as a rule, active = well fitted cell-killing curve with a large enough effect; inconclusive = small, poorly fitted or top-dose-only effect; inactive = no such curve, though single readings can be large or run the other way.
Select the matching outcome among active, inactive

{"columns": ["compound", "answer label"],
 "data": [
  ["Nc1ccn(C[C@@H](CO)OCP(=O)(O)O)c(=O)n1", "inactive"]
]}

Write down the call the test reported for this compound. Item: CC(=O)N[C@H]1[C@@H]([C@H](O)[C@H](O)CO)OC(C(=O)O)=C[C@@H]1N=C(N)N inactive

---

assay: qHTS of pediatric cancer cell lines to identify multiple opportunities for drug repurposing: Primary screen for Saos-2 cells (AID 1347097); conditions: Saos-2 viability, CellTiter-Glo ATP luminescence, 48 h; series mostly up to 46 µM; also: nearly all actives have a fitted effect of over 40% in size; also: potency is read from the fitted curve at half-maximal effect
Results filed as inconclusive are left out. The source made the active and inactive calls. The call rests on the fitted dose curve; in most records, active means well fitted cell-killing curve with a large enough effect; inconclusive means small, poorly fitted or top-dose-only effect; inactive means no such curve, though single readings can be large or run the other way.
property label: Potency

Examples with answers:
{"columns": ["compound", "recorded value"],
 "data": [
  ["Oc1cc2c(cc1O)C1c3ccc(O)c(O)c3OCC1(O)C2 (stereo not given)", "inactive"],
  ["Cn1cc(-c2cnn3c(N)c(Br)c([C@H]4CCCNC4)nc23)cn1", "1480 nM (active)"],
  ["O=C(NNC(=O)c1ccc(CNS(=O)(=O)c2ccc(F)c(Cl)c2)cc1)c1ccccc1", "inactive"],
  ["O=C(O)[C@H](CC(=O)N1C[C@@H]2CCCC[C@H]2C1)Cc1ccccc1", "inactive"],
  ["O=C(O)C[C@H](O)C[C@H](O)C=Cc1c(C2CC2)nc2ccccc2c1-c1ccc(F)cc1", "833 nM (active)"],
  ["N#Cc1c(NC(=O)c2cccc3ccccc23)sc2c1CCCC2", "132 nM (active)"],
  ["CCn1c(=O)c2c(nc(C=Cc3ccc(OC)c(OC)c3)n2C)n(CC)c1=O", "inactive"],
  ["Cc1ccc(-n2[nH]c(C)c(N=Nc3cccc(-c4cccc(C(=O)O)c4)c3O)c2=O)cc1C", "13300 nM (active)"]
]}

Return reported Potency; argument: CN(C)c1ccc(C(=O)NCCCCCCC(=O)NO)cc1 118 nM (active)

Return reported Potency; argument: NC(=O)N1CCC(CC(=O)N2CCC([C@H]3c4ncc(Br)cc4CCc4cc(Cl)cc(Br)c43)CC2)CC1 18700 nM (active)

Return reported Potency; argument: CC(=O)N[C@@H]1[C@H](O[C@@H]2c3ccc(c(Cl)c3)Oc3cc4cc(c3O[C@H]3O[C@H](CO)[C@@H](O)[C@H](O)[C@H]3NC(=O)CCCCCCCC(C)C)Oc3ccc(cc3Cl)C[C@H]3NC(=O)[C@H](N)c5ccc(O)c(c5)Oc5cc(O)cc(c5)[C@H](NC3=O)C(=O)N[C@H]4C(=O)N[C@H]3C(=O)N[C@@H]2C(=O)N[C@@H](C(=O)O)c2cc(O)cc(O[C@H]4O[C@H](CO)[C@@H](O)[C@H](O)[C@H]4O)c2-c2cc3ccc2O)O[C@H](CO)[C@@H](O)[C@@H]1O inactive

Return reported Potency; argument: CN1CCCN(C(=O)c2cccc(-c3ccc(C=C4C(=O)Nc5ccc(Cl)cc54)o3)c2)CC1 23500 nM (active)

Return reported Potency; argument: CCCNC(=O)[C@H]1O[C@H]1C(=O)N[C@H](C(=O)N1CCC[C@@H]1C(=O)OC)C(C)CC (stereo not given in full) 2960 nM (active)

Return reported Potency; argument: OCC(O)C(O)C(O)CO (stereo not given) inactive

Return reported Potency; argument: O=[N+]([O-])c1cn2c(n1)OC[C@@H](OCc1ccc(OC(F)(F)F)cc1)C2 inactive

Return reported Potency; argument: C=CCNC1=C2C[C@@H](C)C[C@H](OC)[C@@H](O)[C@@H](C)C=C(C)[C@H](OC(N)=O)[C@@H](OC)C=CC=C(C)C(=O)NC(=CC1=O)C2=O 1660 nM (active)

These entries and their values trace back to PubChem BioAssay (NCATS).
